assayOverview: Clinical Trial II: sputum and plasma aztreonam concentrations
Assay type: in vivo
measurementSetup: human, sputum, inhaled, 75 mg, sputum aztreonam concentration, median (range), 10 minutes postdose, Day 0
measurementName: concentration at 10 min
Put down the number, then write its unit next to it.

Item C[C@H]1[C@H](NC(=O)/C(=N\OC(C)(C)C(=O)O)c2csc(N)n2)C(=O)N1S(=O)(=O)O [aztreonam] : provide concentration at 10 min
530000 ng/g
